Cited source: patent US8349824B2

A collection of molecules and their measured pIC50
experimental.target: human PDE10A full length (Homo sapiens)
Construct: purchased Enzo Life Science, Lausen, Switzerland SE-534
Sequence (Q9Y233 1-779 isoform Q9Y233-1): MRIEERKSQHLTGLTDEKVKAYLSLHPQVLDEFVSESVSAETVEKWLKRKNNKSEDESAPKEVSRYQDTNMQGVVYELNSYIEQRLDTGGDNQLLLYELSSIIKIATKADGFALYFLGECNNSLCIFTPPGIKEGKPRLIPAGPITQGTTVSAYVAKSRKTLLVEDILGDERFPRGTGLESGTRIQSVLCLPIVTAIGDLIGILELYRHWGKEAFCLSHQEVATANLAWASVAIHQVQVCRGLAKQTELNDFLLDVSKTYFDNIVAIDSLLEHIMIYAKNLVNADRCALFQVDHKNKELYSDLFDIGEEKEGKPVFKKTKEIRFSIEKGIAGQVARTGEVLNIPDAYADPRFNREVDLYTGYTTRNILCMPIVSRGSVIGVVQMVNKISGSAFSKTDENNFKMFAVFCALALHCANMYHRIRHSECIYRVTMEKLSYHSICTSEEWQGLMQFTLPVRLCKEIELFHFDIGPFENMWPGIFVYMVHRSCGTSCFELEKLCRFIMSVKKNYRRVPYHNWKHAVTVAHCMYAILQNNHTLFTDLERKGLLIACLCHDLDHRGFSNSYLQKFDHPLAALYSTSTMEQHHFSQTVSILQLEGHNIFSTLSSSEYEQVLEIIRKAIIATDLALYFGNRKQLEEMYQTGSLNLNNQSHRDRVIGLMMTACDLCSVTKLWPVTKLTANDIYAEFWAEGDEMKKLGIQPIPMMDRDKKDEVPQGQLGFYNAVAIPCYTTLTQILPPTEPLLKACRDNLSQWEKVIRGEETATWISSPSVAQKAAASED
assay.comment: PDE10A Scintillation Proximity Assay (SPA), human PDE10A full length assay
Assay type: biochemical
condition.summary: 50 nM cGMP + 50 nM [3H]-cGMP, 20 minutes at room temperature, read-out: PDE10A inhibition IC50
pIC50: −log10 of the molar value.
property.measured: pIC50

chemical.string	data.value
CN(CCF)C(=O)c1cnn(C)c1C(=O)Nc1ccn2nc(-c3ccccc3)nc2c1	9.37
CN(C)c1nc2cc(NC(=O)c3c(C(=O)N4CCC4)cnn3C)ccn2n1	8.13
Cn1ncc(C(=O)N2CCOCC2)c1C(=O)Nc1ccn2nc(N3CCOCC3)nc2c1	7.39
Cn1ncc(C(=O)N2CCOCC2)c1C(=O)Nc1ccn2nc(N3CCCC3=O)nc2c1	7.79
